System: CRL-7250
Procedure Details: Cytotoxic Profiling of Annotated Libraries Using Quantitative High-Throughput Screening (AID 1296008); also: nearly all actives have a fitted effect of over 60% in size; as to max response: % is scaled to controls: 0 for no effect and ±100 for the full control effect
Reported Conditions: Five cell lines viability, CellTiter-Glo ATP luminescence, 48-72 h; active compounds read low
Records with an inconclusive call do not appear. Activity calls are given as the source filed them. Calls follow the shape of the dose curve; as a rule, active = well fitted inhibition curve with a large enough effect; inconclusive = small, poorly fitted or top-dose-only effect; inactive = flat fitted curve, though single readings scatter. *1 amine or outer side, *2 acyl side, *3 side chain or, on linkers, in order; H or OH if unused. Where a SMILES comes first, the peptide text is derived from it. Bridges are numbered along the chain shown (N, C = ends). [ ]: non-standard residue; d: D form. The star is where a group is joined. pTerphenylCO(4''-OnC5H11) = CCCCCOc1ccc(-c2ccc(-c3ccc(C(=O)*)cc3)cc2)cc1; Orn(4R-OH,5R-OH) = O=C([C@H](C[C@@H](O)[C@@H](O)N[*:3])N[*:1])[*:2]; hTyr(3S-OH,4S-OH) = N[C@H](C(=O)O)[C@H](O)[C@@H](O)c1ccc(O)cc1; Pro(3S-OH,4S-Me) = C[C@H]1CN[C@H](C(=O)O)[C@H]1O; Hyp = O=C(O)[C@@H]1C[C@@H](O)CN1
Metric: max response

Consider the worked cases shown below.
CC(C)c1ccccc1OC(=O)NCCc1ccc2ccccc2c1 = -4.95% (inactive)
CCN(Cc1ccccc1)C(=O)Cn1c(=O)n(C)c2cnc(-c3ccccc3)nc21 = -1.74% (inactive)
C=C(C(=O)OC)[C@@H]1CC=C2C=CC(=O)[C@H](C)[C@@]2(C)C1 = 4.23% (inactive)
Cc1ccc(N2CCN(CCC3NC(=O)c4ccccc43)CC2)cc1C (configuration not stated) = 4.52% (inactive)
CCC(C)c1ccc(NC(=O)Cn2cnc3c2c(=O)n(C)c(=O)n3C)cc1 (configuration not stated) = -7.14% (inactive)

Record max response per entry; entries follow.
1. COC(=O)c1cc2c(C(F)(F)F)cc(-c3ccccc3)cc2n1O
2. CC1=CC2/C=C(\C)CCC(O)C/C=C/C(=O)OC23C(=O)NC(CC(C)C)C3C1C (configuration not stated)
3. N#Cc1ccc(N2N=C3c4ccc(C(=O)O)cc4CC[C@@H]3[C@@H]2C2CCCC2)cc1Cl
4. CCOC(=O)[C@@]1(CCCCCCOc2ccc(Cl)cc2)CO1
5. C/C=C(\C)C(=O)OC1C(C)C2(O)C(C=C(CO)CC3(O)C(=O)C(C)=CC32)C2C(C)(C)C12OC(C)=O (configuration not stated)
6. CCN1CCC[C@@H]1CNC(=O)c1ccc2c(c1)NC(=O)c1cccc(C)c1S2
7. O=C(Nc1ccc(N2C(=O)[C@@H]3[C@H](C2=O)[C@@H]2C=C[C@H]3C2)c(Cl)c1)c1ccccn1
8. NS(=O)(=O)c1ccc(N2N=C(c3ccccc3)CC2c2ccccc2)cc1 (configuration not stated)

["-4.54% (inactive)", "-1.17% (inactive)", "1.36% (inactive)", "-16.7% (inactive)", "-19.7% (inactive)", "2.08% (inactive)", "-25.2% (inactive)", "-0.316% (inactive)"]

Record max response per entry; entries follow.
1. COc1ccc([C@H]2Cc3cccc(O)c3C(=O)O2)cc1OC
2. Cc1nnc(-c2ccc(-c3ccc(C(=O)Nc4ccc(O)c(N5CCN(C)CC5)c4)cc3)c(C)c2)o1
3. CC1(NC(=O)c2ccc(C#Cc3cccc(F)c3)cn2)COC1
4. CCCCCOc1ccc(-c2ccc(-c3ccc(C(=O)N[C@H]4C[C@@H](O)[C@@H](O)NC(=O)[C@@H]5[C@@H](O)[C@@H](C)CN5C(=O)[C@H]([C@@H](C)O)NC(=O)[C@H]([C@H](O)[C@@H](O)c5ccc(O)cc5)NC(=O)[C@@H]5C[C@@H](O)CN5C(=O)[C@H]([C@@H](C)O)NC4=O)cc3)cc2)cc1 ({pTerphenylCO(4''-OnC5H11)}-[Orn(4R-OH,5R-OH)]T[Hyp][hTyr(3S-OH,4S-OH)]T[Pro(3S-OH,4S-Me)]; lactam 1-C)

-21.6% (inactive)
3.58% (inactive)
4.8% (inactive)
4.73% (inactive)

====

Tested System: Cytochrome P450 2D6 (Homo sapiens) (UniProt P10635)
Sequence (P10635 whole entry, looked up): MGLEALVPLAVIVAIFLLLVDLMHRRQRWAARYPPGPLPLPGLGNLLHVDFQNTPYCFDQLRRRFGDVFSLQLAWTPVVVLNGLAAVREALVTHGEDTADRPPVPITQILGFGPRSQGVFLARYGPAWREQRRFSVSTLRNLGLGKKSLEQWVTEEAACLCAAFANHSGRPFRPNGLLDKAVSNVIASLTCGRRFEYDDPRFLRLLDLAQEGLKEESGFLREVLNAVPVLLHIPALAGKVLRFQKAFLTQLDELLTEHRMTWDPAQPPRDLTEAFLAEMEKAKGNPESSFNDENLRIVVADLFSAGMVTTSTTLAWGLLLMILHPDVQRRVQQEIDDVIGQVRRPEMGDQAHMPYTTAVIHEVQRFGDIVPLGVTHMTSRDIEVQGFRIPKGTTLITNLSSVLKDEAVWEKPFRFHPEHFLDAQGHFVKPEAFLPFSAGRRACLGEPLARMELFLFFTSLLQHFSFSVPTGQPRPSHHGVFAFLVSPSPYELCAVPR
Procedure Details: Cytochrome P450 family 2 subfamily D member 6 (CYP2D6) small molecule antagonists: luciferase biochemical (cell-free) qHTS assay (AID 1645840); also: nearly all actives have a fitted effect of over 55% in size
Reported Conditions: P450-Glo CYP2D6 enzyme, luciferin luminescence, 1 h; series mostly up to 57.4 µM
Inconclusive results are not listed. The source made the active and inactive calls. The call rests on the fitted dose curve; in most records, active means well fitted inhibition curve with a large enough effect in the repeat runs; inconclusive means weak or mixed curves; inactive means flat fitted curve, though single readings scatter.
Can you answer with just one of these options? label 1 for active, label 0 for inactive

Cn1nc(-c2ccc(C(F)(F)F)cc2)nc2c(=O)n(C)c(=O)nc1-2 = label 1
Cc1csc2c(N[C@@H](C)CN3CCN(S(=O)(=O)c4ccc(Cl)c(Cl)c4)CC3)ncnc12 = label 1

Please let me know the test result on file for `O=C(CCl)Nc1cccc(NC2=NS(=O)(=O)c3ccccc32)c1` .
label 0

Now consider `CCOC(=O)CCNc1cc(N2CCc3ccccc3CC2)nc(-c2cccnc2)n1` and answer again.
label 1

Now consider O=C(NCCCc1ccccc1)C1CCC(CNS(=O)(=O)c2cccc3nsnc23)CC1 (stereo not given) and answer again.
label 1

Now consider `COC(=O)N1CCC(n2ncc3c(N4CCOCC4)nc(-c4ccc(NC(=O)NC5CC5)cc4)nc32)CC1` and answer again.
label 1

Now consider `COc1ccc(CNc2nc(N(CCO)CCO)nc3c2ncn3C(C)C)cc1` and answer again.
label 0

Now consider `CCCc1ccc(OCC(=O)N(Cc2nc(-c3cccnc3)no2)C(C)C)cc1` and answer again.
label 1

Now consider `COc1cc(C(=O)NC(=S)Nc2cccc(NC(=O)c3ccccc3)c2)cc(OC)c1OC` and answer again.
label 0

Now consider `Cc1ccnn1-c1ccc(C(=O)N2CCN(S(=O)(=O)c3ccc(Cl)c(C(F)(F)F)c3)CC2)cc1` and answer again.
label 0

====

System: Tov-21-G
Procedure Details: Primary qHTS to identify gynecologic anti-cancer compounds using libraries of approved drugs and bioactive compounds (AID 1345084); also: nearly all actives have a fitted effect of over 55% in size
Reported Conditions: Gynecologic cancer cell panel viability, ATPlite luminescence, 48 h; series mostly up to 57.5 µM
Records with an inconclusive call do not appear. Activity calls are given as the source filed them. Calls follow the shape of the dose curve; as a rule, active = well fitted cell-killing curve with a large enough effect; inconclusive = small, poorly fitted or top-dose-only effect, or effect the other way; inactive = flat fitted curve, though single readings scatter.
Can you answer with just one of these options? active, inactive

CC(C)c1cccc(C(C)C)c1NC(=O)Nc1ccc(Sc2ccc([N+](=O)[O-])cc2)cc1 = inactive

Please let me know the test result on file for `CC(C)S(=O)(=O)NC[C@H](C)c1ccc(-c2ccc(CCNS(C)(=O)=O)cc2)cc1` .
inactive

Now consider `NC(N)=N/N=C/c1ccccc1Cl` and answer again.
inactive

Now consider COc1ccccc1OCCN1CC(COc2cccc3[nH]c4ccccc4c23)OCC1=O (stereo not given) and answer again.
inactive

Now consider Nc1ncnc2c1nc(Cl)n2C1OC2COP(=O)(O)OC2C1O (stereo not given) and answer again.
active

Now consider `Cc1cn(CCN2CCN(c3ccccc3-c3cc(C#N)cc(C(=O)NCCCN4CCCC4)c3)CC2)c2ccccc12` and answer again.
inactive

Now consider `C[C@@H](N[C@H]1CCCC[C@@H]1NC(=O)c1ccc(Cl)cc1)c1cccc2ccccc12` and answer again.
inactive

Now consider `C=C1C(=O)O[C@@H]2C[C@H](C)C3=CC(=O)[C@H](O)[C@@]3(C)C[C@H]12` and answer again.
inactive

Now consider C=C1CCCC2(C)CCC(C(C)(C)OC3OC(C)C(O)C(O)C3OC(=O)/C(C)=C\C)CC12 (stereo not given) and answer again.
inactive

Now consider `COc1cc(C(C)C)c(Oc2cnc(N)nc2N)cc1I` and answer again.
inactive

====

System: HaCat
Procedure Details: Cytotoxic Profiling of Annotated Libraries Using Quantitative High-Throughput Screening (AID 1296008); also: nearly all actives have a fitted effect of over 60% in size; also: potency is read from the fitted curve at half-maximal effect
Reported Conditions: Five cell lines viability, CellTiter-Glo ATP luminescence, 48-72 h
Inconclusive results are not listed. Calls of active or inactive are those of the source. Calls come from the whole dose curve; as a rule, active = well fitted inhibition curve with a large enough effect; inconclusive = small, poorly fitted or top-dose-only effect; inactive = flat fitted curve, though single readings scatter.
Metric: Potency

Consider the worked cases shown below.
Fc1ccc(CN2CCC(Nc3ccc(C(F)(F)F)nn3)CC2)cc1F = inactive
CNS(=O)(=O)c1ccccc1Nc1nc(Nc2ccc(N3CCN(C)CC3)cc2OC)ncc1Br = 3.26 µM (active)
CCOc1cc(C(C)(C)C)ccc1C1=NC(C)(c2ccc(Cl)cc2)C(C)(c2ccc(Cl)cc2)N1C(=O)N1CCN(CCCS(C)(=O)=O)CC1 (centres undefined) = 20.6 µM (active)
Cc1cccc(CC(=O)N2CCc3c2ccc(-c2cn(C)c4ncnc(N)c24)c3F)n1 = inactive

Record Potency per entry; entries follow.
1. COc1ccccc1OCCN1CC(COc2cccc3[nH]c4ccccc4c23)OCC1=O (centres undefined)
2. CCNC(=O)N1CCCN(c2ccc(C(=O)NCCc3ccc(Cl)cc3Cl)cc2NC(=O)c2cccc(Cl)c2)CC1
3. CC(=O)NC[C@H]1CN(c2ccc(N3CCSCC3)c(F)c2)C(=O)O1

inactive
inactive
inactive

Record Potency per entry; entries follow.
1. COc1cc([C@H]2O[C@H](c3cc(OC)c4c(c3)OCO4)[C@H](C)[C@H]2C)cc(OC)c1OC
2. CC[C@@H](C)Nc1cc(C(=O)NC2CC3CCC(C2)N3c2ccc(C(=O)C3CC3)cn2)c(C)cc1C(N)=O (some centres undefined)

["inactive", "0.184 µM (active)"]
